These measurements were taken from PubChem BioAssay (NCI).

System: PC-3 prostate
assay_text: NCI-60 one-dose screen, 48 h (100 = growth as untreated, 0 = no growth, -100 = all killed)
recorded_conditions: 10 µM unless noted
This is part of a sample that, as a whole, favours compounds with a hit. Of some 83,000 tested, about 20% had one in any assay.
Decision: growth >= 80% yields Fulfilled, all other cases yield Not fulfilled.

Study these solved cases before continuing.
compound=O=NN(c1ccccc1)c1ccccc1 category_label=Fulfilled
compound=C[C@@]12CCCc3coc(c31)C(=O)c1cc3c(cc12)C(=O)C1=C(NCCS1(=O)=O)C3=O category_label="Not fulfilled"
compound=CNC(=O)CCl category_label=Fulfilled

Assess whether reported growth for C[C@]12CC[C@H]3[C@@H](C[C@@H]4SC(Nc5ccccc5)=N[C@@]45C/C(=N/O)CC[C@]35C)[C@@H]1CCC2=O sits at 80% or higher.
Not fulfilled

// inclusive: growth at least 80%? input: [N-]=[N+]=CC(=O)CCC(=O)C=[N+]=[N-]
Fulfilled

Confirm if growth reported for the compound COC1C(O)CC(OC2CC(Oc3cc4cc5c(c(O)c4c(O)c3C)C(=O)[C@@H](OC3CC(OC4CC(OC6CC(C)(O)C(OC(C)=O)C(C)O6)C(O)C(C)O4)C(O)C(C)O3)[C@H]([C@H](OC)C(=O)[C@@H](O)[C@@H](C)O)C5)OC(C)C2OC(C)=O)OC1C (stereo not given in full) is 80% or above.
Not fulfilled

Evaluate O=c1c2ccccc2nc(-c2ccccc2Cl)n1-c1nnc(C(F)(F)F)s1 : growth at minimum 80%?
Not fulfilled

// inclusive: growth at least 80%? input: CC[C@@H](C)C(=O)O[C@H]1[C@H](O)[C@H]2[C@@H](CN3C[C@@H](C)CC[C@H]3[C@@]2(C)O)[C@@H]2C[C@]34O[C@]5(O)[C@@H](OC(=O)[C@@](C)(O)CC)CC[C@@]3(C)[C@@H]5[C@@H](OC(C)=O)[C@@H](OC(C)=O)[C@H]4[C@@]21O
Not fulfilled

Check the entry CCC(=O)C(CC(C)[N+](C)(C)C)(c1ccccc1)c1ccccc1 (stereo not given) : does growth equal or exceed 80%?
Fulfilled

Confirm if growth reported for the compound C[C@]12CC[C@H]3[C@@H](C[C@@H]4SC(Nc5cccc(F)c5)=N[C@@]45CC(=O)CC[C@]35C)[C@@H]1CCC2=O is 80% or above.
Not fulfilled
